Kindly state Kd for each of the entries shown.
Target or test system: T1, sIL-6R (soluble IL-6 receptor; SBH Sciences) (human, UniProt P08887 20-365)
T1 construct: also called human IL-6R
T1 sequence: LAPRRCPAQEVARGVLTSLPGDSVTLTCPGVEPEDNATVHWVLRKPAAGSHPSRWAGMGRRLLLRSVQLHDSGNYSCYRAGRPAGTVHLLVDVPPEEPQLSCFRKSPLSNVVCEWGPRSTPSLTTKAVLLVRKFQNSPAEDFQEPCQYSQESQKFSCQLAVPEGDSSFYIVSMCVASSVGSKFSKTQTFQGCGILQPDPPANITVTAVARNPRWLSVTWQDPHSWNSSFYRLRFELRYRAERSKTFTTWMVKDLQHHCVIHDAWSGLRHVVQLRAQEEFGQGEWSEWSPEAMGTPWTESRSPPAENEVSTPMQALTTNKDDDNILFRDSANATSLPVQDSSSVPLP
Measurement description: SPR (BIAcore 3000), antibody on chip, sIL-6R analyte, 25 C
Just the number in nM, nothing appended.

Query string: Give me measured Kd, please, for this binder: 201# (antibody, human IgG1, kappa, V domains shown, also called Sample # 201) VH: QVQLQESGPGLVRPSQTLSLTCTVSGYSITSDHAWSWVRQPPGRGLEWIGFISYSGMTTYNPSLKSRVTMLRDTSKNQFSLRLSSVTAADTAVYYCARCLARITAIDFWGQGSLVTVSS VL: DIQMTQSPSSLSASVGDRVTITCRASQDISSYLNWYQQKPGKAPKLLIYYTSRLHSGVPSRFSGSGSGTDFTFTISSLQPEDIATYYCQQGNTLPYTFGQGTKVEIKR
Result string: 0.0674

Query string: Quote Kd reported for 205# (antibody, human IgG1, kappa, V domains shown) VH: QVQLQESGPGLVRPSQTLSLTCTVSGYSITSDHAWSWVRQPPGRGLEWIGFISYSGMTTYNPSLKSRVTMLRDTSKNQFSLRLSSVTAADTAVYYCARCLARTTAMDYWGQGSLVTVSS VL: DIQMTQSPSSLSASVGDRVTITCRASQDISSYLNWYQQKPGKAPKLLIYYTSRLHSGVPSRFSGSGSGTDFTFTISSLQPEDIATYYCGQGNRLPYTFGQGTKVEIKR please.
Result string: 0.0122

Query string: Supply recorded Kd for 56# (antibody, human IgG1, kappa, V domains shown, also called Sample # 56) VH: QVQLQESGPGLVRPSQTLSLTCTVSGYSITSDHAWSWVRQPPGRGLEWIGFISYSGMITYNPSLKSRVTMLRDTSKNQFSLRLSSVTAADTAVYYCARSLARITAMDYWGQGSLVTVSS VL: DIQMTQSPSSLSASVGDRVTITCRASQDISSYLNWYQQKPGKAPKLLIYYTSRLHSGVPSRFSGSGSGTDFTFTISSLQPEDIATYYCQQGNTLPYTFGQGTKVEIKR here.
Result string: 0.243

These measurements were taken from patent US20190315854A1.
